Values were extracted from patent US20100168176A1.

Tested on: H
Experiment: Crystal violet cell growth assay, H
Type: cell-based
Details: read-out: Cr. Violet (IC50)
Quick rule for you: IC50 under 7 µg/mL gets Condition met, anything else gets Condition not met.

Compound: CCCCCCCCC1(C)SC(=O)C=C1OCC(=O)NNc1ccc(Cl)cc1Cl (centres unmarked) [Compound 14]
Category: Condition not met

(Q) Strictly below 7 µg/mL: is that where IC50 of CCCCCCCCC1(C)SC(=O)C=C1OCC(=O)NNc1nc2ccccc2s1 (single isomer, unassigned) [Compound 17] sits?
(A) Condition not met

(Q) Strictly below 7 µg/mL: is that where IC50 of CCCCCCCCC1(C)SC(=O)C=C1OCC(=O)NNc1ccc(Cl)c(Cl)c1 (centres unmarked) [Compound 15] sits?
(A) Condition not met

(Q) Strictly below 7 µg/mL: is that where IC50 of CCCCCCCCC1(C)SC(=O)C=C1OCC(=O)NNc1ccc(OC)cc1 (centres unmarked) [Compound 13] sits?
(A) Condition not met

(Q) Strictly below 7 µg/mL: is that where IC50 of CCCCCCCCC1(C)SC(=O)C=C1OCC(=O)NNc1cc(C(F)(F)F)ccc1Cl (centres unmarked) [Compound 16] sits?
(A) Condition met
